Target: Apelin receptor (Homo sapiens) (UniProt P35414)
Sequence (P35414 whole entry, looked up): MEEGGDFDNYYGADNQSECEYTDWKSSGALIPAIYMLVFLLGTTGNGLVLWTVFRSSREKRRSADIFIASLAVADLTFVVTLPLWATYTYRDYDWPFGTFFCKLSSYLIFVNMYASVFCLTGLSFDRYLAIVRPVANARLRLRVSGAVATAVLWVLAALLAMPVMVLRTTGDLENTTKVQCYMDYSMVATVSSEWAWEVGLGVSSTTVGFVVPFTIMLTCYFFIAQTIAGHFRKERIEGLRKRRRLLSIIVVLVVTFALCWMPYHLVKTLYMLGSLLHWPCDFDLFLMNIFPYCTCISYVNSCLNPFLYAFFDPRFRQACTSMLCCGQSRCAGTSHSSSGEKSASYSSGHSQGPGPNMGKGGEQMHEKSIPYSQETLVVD
Assay: APJ activation via beta-arrestin recruitment – CHO-K1 cells, PathHunter beta-arrestin, luminescence, primary screen (AID 2520);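 note: 0% = DMSO alone and 100% = apelin-13 at 10 nM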
Conditions: at 20 µM, hits give high values, 0% DMSO wells, 100% apelin
Hit rate of the full screen: of about 330,000 compounds, about 350 (0.11%) were called active. The sample as a whole holds a higher share of actives than the screen did.
Measured activation, listed per entry.
assayMetric: activation (%)

Cc1cc(C)nc(NC2=NCC(=O)N2c2ccc(Cl)cc2)n1    -2.04
CC(=O)N1c2ccc(S(=O)(=O)N3CCCC(C(=O)Nc4cccc(Cl)c4)C3)cc2CC1C (stereo not drawn)    -0.333
COc1ccc(C)cc1NC(=O)c1cc(-c2ccccc2)nc2c1cnn2C(C)C    -4.65
COC(=O)c1ccc(NC(=O)CSc2nnc(C3CC3)n2C)cc1    -3.11
CCn1c(SCC(=O)NC2CC2)nnc1-c1ccncc1    -8.09
CC(=O)N1CCCc2cc(S(=O)(=O)N3CCCC(C(=O)N4CCN(c5cccc(Cl)c5)CC4)C3)ccc21 (stereo not drawn)    19.6
CCC(=O)Nc1c(C)n[nH]c1C    -0.823
CC(=O)c1ccccc1OCc1ccc(C(=O)c2ccccc2)cc1    -3.74

====

Molecular target: Apelin receptor (Homo sapiens) (UniProt P35414)
Experiment: APJ activation via beta-arrestin recruitment – CHO-K1 cells, PathHunter beta-arrestin, luminescence, primary screen (AID 2520);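 note: 0% = DMSO alone and 100% = apelin-13 at 10 nM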
Conditions: at 20 µM, 0% DMSO wells, 100% apelin
Screen size: about 330,000 compounds; about 350 (0.11%) were called active.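 The calls were made as follows: active = activation more than six SD over the plate average, tested at 20 µM; inactive = the rest.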 This is one part of a sample in which actives are shown more often than they occur.
Possible outcomes: true (1) for active, false (0) for inactive

CCc1ccc2c(c1)cc(CN(C(=S)Nc1ccccc1Cl)C1CC1)c1nnnn12    false (0)
CN(CCc1ccccn1)C(=O)c1ccc(OC2CCN(Cc3ccccn3)CC2)cc1    false (0)
Nc1nc(-c2sc3nc4c(cc3c2N)CCCC4)nc(N2CCOCC2)n1    true (1)
CC1=C(C/C=C(\C)CCCC(C)CCCC(C)CCCC(C)C)C(=O)c2ccccc2C1=O (configuration not stated)    false (0)
Cc1cccc(NC(=O)c2sc3nc(N4CCOCC4)c4c(c3c2N)CCCC4)c1    false (0)
COCn1c(C(O)c2ccccc2)cc2ccccc21 (configuration not stated)    false (0)
Cc1nc(N2CCOCC2)nc2c1CCCC2    false (0)

====

Target: Apelin receptor (Homo sapiens)
Assay: APJ activation via beta-arrestin recruitment – CHO-K1 cells, PathHunter beta-arrestin, luminescence, primary screen (AID 2520);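 note: 0% = DMSO alone and 100% = apelin-13 at 10 nM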
Details: at 20 µM, hits give high values, 0% DMSO wells, 100% apelin
Among all 330,000 compounds or so, about 350 (0.11%) were called active. What follows is part of a selection rich in actives, with near analogues and random picks from the rest.
assayMetric: activation (%)

Cc1cc(NC(=O)Nc2ccccc2[N+](=O)[O-])no1    -0.224
CCc1ccc(CN2C(=O)c3ccccc3C2C(=O)NCC2CCCO2)cc1 (stereo not given)    1.09
CCN1CCN(C(C(=O)NC2CCCC2)c2cc3c(cc2[N+](=O)[O-])OCO3)CC1 (stereo not given)    9.21
CC(C)NC(=O)Nc1cccc2c1O[C@@H](CN(C)S(=O)(=O)c1ccc(F)cc1)[C@@H](C)CN([C@H](C)CO)C2=O    -0.163
CC[C@@]1(C(=O)OC)N[C@H](CN(C)C(C)=O)[C@@H]2C(=O)N(C)C(=O)[C@@H]21    -1.38
CSc1nccc(NC(=O)c2ccc(C(C)(C)C)cc2)n1    1.31
CN1CCN(CCCCOc2ccccc2-c2ccccc2)CC1    3.27
O=S(=O)(N1CCCCC1)N1CCNCC1    2.29
COc1cccc(N(CC(=O)NC2CCCC2)C(=O)Cn2nnc(-c3ccc(C)cc3)n2)c1    0.507
CCCCNC(=O)c1ccccc1NC(=O)C1=C(C)OCCS1    0.515
